Values were extracted from patent US20260174724A1.

# Method Notes: Bioavailability experiment: DHM concentration in plasma after gavage, LC-MS/MS
# Assay type: in vivo
# Condition Details: rat, po, male SD rats, DHM 100 mg/kg
Outcome Measure: Cmax (ng/mL)
Report the value in ng/mL with no unit label.

So what's the measured Cmax for this one? O=C1c2c(O)cc(O)cc2O[C@H](c2cc(O)c(O)c(O)c2)[C@H]1O [DHM, dihydromyricetin]
118

---

# Method Notes: Bioavailability experiment: DHM concentration in plasma after gavage, LC-MS/MS
# Type: in vivo
# Condition Details: rat, po, male SD rats, DHM 100 mg/kg
Outcome Measure: AUC(0-inf) (µg·h/mL)
Value expressed in µg·h/mL; do not type the unit.

Would you mind telling me what AUC(0-inf) value was observed for O=C1c2c(O)cc(O)cc2O[C@H](c2cc(O)c(O)c(O)c2)[C@H]1O [DHM, dihydromyricetin] ?
0.194
